studySystem: DLK (Homo sapiens)
Construct: 10 nM DLK, catalytic domain, Carna Biosiences; purchased Carna Biosciences ('Carna Biosiences' [sic])
Sequence (Q12852 125-366 limits assumed): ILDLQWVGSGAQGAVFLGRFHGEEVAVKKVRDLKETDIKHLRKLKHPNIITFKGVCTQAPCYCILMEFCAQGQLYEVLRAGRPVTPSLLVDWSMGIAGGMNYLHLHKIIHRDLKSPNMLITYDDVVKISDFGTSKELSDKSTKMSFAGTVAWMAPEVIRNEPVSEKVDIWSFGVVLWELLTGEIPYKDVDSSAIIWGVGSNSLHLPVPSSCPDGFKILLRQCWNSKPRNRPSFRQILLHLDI
assayDetails: DLK biochemical assay (TR-FRET, MKK7 phosphorylation)
pIC50: −log10 of the molar value.
measuredProperty: pIC50

compound	pIC50
Nc1nc2c(-c3ccn(CC(F)(F)F)c(=O)c3)cc(-c3cnn(C(c4ccc(C(F)(F)F)nc4)C4CCOCC4)c3)cn2n1 (stereo not drawn) [II-175]	8.57

a = CC[C@@H](c1ccccc1)n1cc(-c2cc(-c3cnn(CCO)c3)c3nc(N)nn3c2)cn1 [II-97]
b = CC(C)C(c1ccc(C(F)(F)F)nc1)n1cc(-c2cc(-c3cnn(C4CCCC4)c3)n3nc(N)nc3c2)cn1 (stereo not drawn) [II-143]
Hi! Which is lower in terms of pIC50, the first one a or the second one b ? Answer by stating the label of the chosen item.
a
(a: 8.09, b: 8.60)

###

studySystem: LZK (Homo sapiens, UniProt O43283)
Construct: 10 nM LZK, catalytic domain, Carna Biosiences in assay buffer; purchased Carna Biosciences ('Carna Biosiences' [sic])
Sequence (O43283 168-409 limits assumed): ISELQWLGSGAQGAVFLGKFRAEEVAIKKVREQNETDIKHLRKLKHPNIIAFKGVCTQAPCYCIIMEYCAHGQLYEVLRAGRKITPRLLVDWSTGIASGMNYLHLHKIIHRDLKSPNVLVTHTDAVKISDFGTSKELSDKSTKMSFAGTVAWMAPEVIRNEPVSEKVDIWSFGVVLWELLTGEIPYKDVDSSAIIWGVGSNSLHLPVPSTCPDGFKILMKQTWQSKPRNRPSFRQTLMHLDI
assayDetails: LZK biochemical assay (TR-FRET, MKK7 phosphorylation)
pIC50: −log10 of the molar value.
measuredProperty: pIC50

Here are 2 compounds together with their reported answers.
compound	pIC50
Nc1nc2cc(-c3cnn(C(c4ccc(C(F)(F)F)nc4)C4CCOCC4)c3)cc(-c3cn(CC(F)(F)F)c(=O)cn3)n2n1 (racemic) [II-194]	7.77
Nc1nc2cc(-c3cnn(Cc4ccnc(OC(F)(F)F)c4)c3)cc(-c3cnn(CC(F)(F)F)c3)n2n1 [II-135]	7.15

1 = CC[C@@H](c1ccccc1)n1cc(-c2cc(-c3cnn(CC(F)(F)F)c3)n3nc(N)nc3c2)cn1 [II-127]
2 = CC[C@@H](c1ccc(C(F)(F)F)nc1)n1cc(-c2cc(-c3ccc(=O)n(CC(F)(F)F)c3)c3nc(N)nn3c2)cn1 [II-159]
Please tell me which of the two, 1 or 2 , has the higher reported pIC50 value. Respond with the label that goes with your answer.
2
(2: 8.21, 1: 7.00)

I = CC(C)C(c1ccc(C(F)(F)F)nc1)n1cc(-c2cc(-c3ccc(C4CC4)nc3)c3nc(N)nn3c2)cn1 (single isomer, unassigned) [II-44]
II = Nc1nc2c(-c3ccn(CC(F)F)c(=O)c3)cc(-c3cnn(C(c4ccc(C(F)(F)F)nc4)C4CCOCC4)c3)cn2n1 (stereo not shown) [II-172]
Short answer wanted: higher pIC50, I or II ? Indicate your choice by writing its label.
II
(II: 7.96, I: 7.00)

###

studySystem: LZK (Homo sapiens)
Construct: 10 nM LZK, catalytic domain, Carna Biosiences in assay buffer; purchased Carna Biosciences ('Carna Biosiences' [sic])
assayDetails: LZK biochemical assay (TR-FRET, MKK7 phosphorylation)
pIC50: −log10 of the molar value.
measuredProperty: pIC50

compound	studySystem	pIC50
CCC(c1ccc(C(F)F)nc1)n1cc(-c2cc(-c3cnn(CC(F)(F)F)c3)c3nc(N)nn3c2)cn1 (single isomer, unassigned) [II-106]	LZK (Homo sapiens)	7.33

a = CCC(c1ccc(C(F)F)nc1)n1cc(-c2cc(-c3cnn(CC(F)(F)F)c3)c3nc(N)nn3c2)cn1 (racemic) [II-105]
b = CC(C)C(c1ccc(C(F)(F)F)nc1)n1cc(-c2cc(-c3ccc(C4CC4)nc3)c3nc(N)nn3c2)cn1 (racemic) [II-43]
c = CC(C)(O)c1cccc(-c2cc(-c3cnn(C(c4ccc(C(F)(F)F)nc4)C4CCOCC4)c3)cn3nc(N)nc23)c1 (single isomer, unassigned) [II-11]
Sort the 3 compounds by pIC50; largest first, smallest last. // ordering of labels required in reply
c, b, a
